System: MS2 coat protein
ASSAY: apparent KD of MS2 coat protein; designed switch direction (-1 OFF switch, 1 ON switch): 1; higher = weaker reporter binding
PARTICULARS: Eterna round: R95; input ligand: none
Entry flag: Satisfied if apparent KD of MS2 coat protein reaches 80 nM; Not satisfied if it does not.

Solved entries:
1) CGGGUACAUGAGGAUCACCCAUGUGGAAGAGAUGCAGGAUAUGUGGGAAAAGGGAAUGUAACAGAAGGGCAAGGAG [JR_SS!_Sub016] (puzzle: Same State 1) ... Satisfied
2) AAGUUAAGCUUUUUGUUCUGCCUAUUCCAACAUGAGGAUCACCCAUGUAGUCUGACGAUUGUGUGUGUAGUUGAGAU [JR_SHM208A_Sub028] (puzzle: Sensor for hsa-mir-208a) ... Not satisfied

Exercise: Could you please find out whether UAGAAACAUGAGGAUCACCCAUGUGGGUUAAACACAGGAUAUCAUGCCACACGAUAGGUAUGAGAAGGGUGACCGU [Sodion] (puzzle: Same State 1) has apparent KD of MS2 coat protein that meets 80 nM or exceeds it?
Key: Not satisfied

Exercise: Determine whether this sequence has apparent KD of MS2 coat protein no lower than 80 nM: AAGUUACUAUCUCAGGAUAUCAUGUCAAAGACAUGAGGAUCACCCAUGUACCAGGAAACUGGUUAUGAGAAGGGAGAUAGUAACU [Mat - Same State 2 - Mod - D54] (puzzle: Same State 2)
Key: Satisfied

Exercise: Could you verify whether the entry GGGCCAGCCUGUGCUGGGCCUUAGCAUGCACAUGAGGAUCACCCAUGUCGUGUACAUGCUUUUUGCUCGUCUUUAAA [Photon Torp-09] (puzzle: Sensor for hsa-mir-208a) shows apparent KD of MS2 coat protein of no less than 80 nM?
Key: Satisfied

Exercise: Is apparent KD of MS2 coat protein for AACAAUCUAUCUGAGGAUAUCAUGAAAUAAACAUGAGGAUCACCCAUGUGCAGGAUAACUGCAUAUGAGAAGGCAGAUAGAUUGA [salish99_ss2_r3_041] (puzzle: Same State 2) at or above 80 nM?
Key: Satisfied

Exercise: Check if apparent KD of MS2 coat protein >= 80 nM (inclusive). Item: UUUUAUUUUUGGGUGCAAGCUUUUUGCUUACAUGAGGAUCACCCAUGUUUUUAUUUUUUAUUUUUAUUUUUAUUUUU (puzzle: Sensor for hsa-mir-208a)
Key: Satisfied

Exercise: Assess whether reported apparent KD of MS2 coat protein for AGAUAGUGUGGAAAGGAUAUACGGUUGAGGACAUGAGGAUCACCCAUGUAGUAGAGGAAGGAAGGGUAGAAGGUUCAGGAUUGAU [JR_SS2_Sub018] (puzzle: Same State 2) sits at 80 nM or higher.
Key: Not satisfied

Exercise: Has GGUCCAGCCUGAGCUGGACAAAAGCAUGUACAUGAGGAUCACCCAUGUCAUGUACAAGUUUUUUGCUCGUCUUAAAA [JL mod - D87 - 12] (puzzle: Sensor for hsa-mir-208a) a recorded apparent KD of MS2 coat protein greater than or equal to 80 nM?
Key: Not satisfied

----------
Exercise: for every item that follows, state its recorded apparent KD of MS2 coat protein.
Test system: MS2 coat protein
ASSAY: apparent KD of MS2 coat protein; designed switch direction (-1 OFF switch, 1 ON switch): -1; higher = weaker reporter binding
PARTICULARS: Eterna round: R95; input ligand: FMN 200 uM
Give bare numbers, in nM.

Here are 2 sequences together with their reported answers.
1) GAUUAUGCGAGCUUUAGGGACAUGAGGAUCACCCAUGUUCGUCUUAUUGAUCUAGGUACACUGACAUACCUAAAUCU [JMF 66] (puzzle: Sensor v3, turn-off variant 1) ... 23.7
2) UAGAAACAUGAGGAUCACCCAUGUGAGGAUAUGAAAAAGAAAAGAAAAGAAAGAAGAAUCAGAAGGCACAAAGU [salish99-ex1_r3_087] (puzzle: Exclusion 1) ... 30.5

Please state apparent KD of MS2 coat protein for every sequence in the list that follows.
1. GAAAAGGUAGGAUAUACGAAAAAAAAGGGUAGAUAAAAAACACAUGAGGAUCACCCAUGUAGAAGGACCAAAAG [salish99_ex2_r3_078] (puzzle: Exclusion 2)
2. GAGUAGGUAGGAUAUACGAUAAUAUAGGGUAGAUAUAUAACACAUGAGGAUCACCCAUGUAGAAGGACCAGGAG [Mat - Exclusion 2 - Mod of my Tesla design - D63] (puzzle: Exclusion 2)
3. UCGACGUAAGGAUAUAUAAGGAACGAAGUAAGUUGUAGAAAAUAGAAGGUACAUGAGGAUCACCCAUGUUAAGA [JR_Exclu4_Sub061] (puzzle: Exclusion 4)

Key:
1: 101; 2: 115; 3: 19.4

Hello, the source for this data is the supplement of paper PMC9170038, in case you need it.
